Every entry's value here was drawn from patent US20040254344A1.

# RECORDED_CONDITIONS: rat, oral prodrug 25 mg-equivalents of gabapentin per kg
As shown below, each of these molecules has a reported Cmax PD (Cmax of prodrug in plasma) value.
# number only, unit ng/mL dropped from output

Worked cases, answers included:
>>> print(df.to_string())
                                   molecule  units_of_measure  observed_value
0  N#Cc1ccc(C[C@H](N)C(=O)NCC2(CC(=O)O)CCCCC2)cc1             ng/mL           22400
1  NC(Cc1ccc(F)cc1F)C(=O)NCC1(CC(=O)O)CCCCC1 (stereo not shown)             ng/mL          278000
2  N[C@@H](Cc1ccc(C(F)(F)F)cc1)C(=O)NCC1(CC(=O)O)CCCCC1             ng/mL           30000
3  N[C@@H](Cc1cccc2ccccc12)C(=O)NCC1(CC(=O)O)CCCCC1             ng/mL             500
4  N#Cc1cccc(C[C@H](N)C(=O)NCC2(CC(=O)O)CCCCC2)c1             ng/mL             600
5  N[C@@H](Cc1cc(F)cc(F)c1)C(=O)NCC1(CC(=O)O)CCCCC1             ng/mL            2900

Here's the next entry for you.
Any idea what its Cmax PD (Cmax of prodrug in plasma) is? The molecule is `N[C@@H](Cc1ccc(Br)cc1)C(=O)NCC1(CC(=O)O)CCCCC1`
103000

* * *

# ASSAY_NOTES: Caco-2 homogenate S9 stability
# Type: in vitro ADME
# RECORDED_CONDITIONS: incubation with Caco-2 homogenate for 1 hour, 5 μM, 37° C.
% of prodrug surviving intact below 90% gives rule not met; % of prodrug surviving intact at or above it gives rule met.

Answered examples (4):
                            compound_string  qualitative_label
0  N[C@@H](Cc1ccc(Br)cc1)C(=O)NCC1(CC(=O)O)CCCCC1       rule not met
1  N#Cc1cccc(C[C@H](N)C(=O)NCC2(CC(=O)O)CCCCC2)c1       rule not met
2  N[C@@H](Cc1ccc(C(F)(F)F)cc1)C(=O)NCC1(CC(=O)O)CCCCC1           rule met
3  N[C@@H](Cc1cccc2ccccc12)C(=O)NCC1(CC(=O)O)CCCCC1       rule not met

Moving on to the next compound.
Entry `N[C@@H](Cc1cc(F)cc(F)c1)C(=O)NCC1(CC(=O)O)CCCCC1` : is its % of prodrug surviving intact no less than 90%?
rule not met
